- System: Staphylococcus aureus
- methodDescription: Antibacterial activity against Staphylococcus aureus SA-K1902 bearing norA- deficient mutation by microdilution technique
- Type: functional
measurementType: MIC

Before answering, review these 3 worked examples.
In one line, give reported MIC of the entry CC1CSC2=C(CN(c3cc4c(cc3F)c(=O)c(C(=O)O)cn4C3CC3)CC2)C1=O (centres undefined) .
0.16 µg/mL

In one line, give reported MIC of the entry CO/N=C1\CCSC2=C1CN(c1cc3c(cc1N)c(=O)c(C(=O)O)cn3C1CC1)CC2 .
1.56 µg/mL

In one line, give reported MIC of the entry Nc1cc2c(=O)c(C(=O)O)cn(C3CC3)c2cc1N1CCC2=C(C1)C(=O)CCS2 .
3.13 µg/mL

List reported MIC for each of these compounds:
1. Cc1c(N2CCC3=C(C2)/C(=N/O)CCS3)c(N)cc2c(=O)c(C(=O)O)cn(C3CC3)c12
2. Cc1c(N2CCC3=C(C2)C(=O)CCS3)c(N)cc2c(=O)c(C(=O)O)cn(C3CC3)c12
3. CO/N=C1\CCSC2=C1CN(c1c(N)cc3c(=O)c(C(=O)O)cn(C4CC4)c3c1C)CC2
4. CC1CSC2=C(CN(c3cc4c(cc3N)c(=O)c(C(=O)O)cn4C3CC3)CC2)/C1=N/O (centres undefined)
5. Cc1c(N2CCc3ccccc3C2)c(N)cc2c(=O)c(C(=O)O)cn(C3CC3)c12

0.63 µg/mL
0.31 µg/mL
0.31 µg/mL
1.56 µg/mL
≤ 0.02 µg/mL

List reported MIC for each of these compounds:
1. CC1CSC2=C(CN(c3cc4c(cc3F)c(=O)c(C(=O)O)cn4C3CC3)CC2)/C1=N/O (centres undefined)
2. Cc1c(N2CCC3=C(C2)C(O)CCS3)c(N)cc2c(=O)c(C(=O)O)cn(C3CC3)c12 (centres undefined)
3. Cc1c(N2CCC3=C(C2)C(=O)C(C)CS3)c(N)cc2c(=O)c(C(=O)O)cn(C3CC3)c12 (centres undefined)

1. 0.16 µg/mL
2. > 100 µg/mL
3. 0.16 µg/mL

List reported MIC for each of these compounds:
1. COc1c(N2C[C@@H]3CCCN[C@@H]3C2)c(F)cc2c(=O)c(C(=O)O)cn(C3CC3)c12 [MOXIFLOXACIN]
2. CO/N=C1/C2=C(CCN(c3cc4c(cc3F)c(=O)c(C(=O)O)cn4C3CC3)C2)SCC1C (centres undefined)

["0.08 µg/mL", "2.5 µg/mL"]
